Target: EHMT1 (Homo sapiens, UniProt Q9H9B1)
Sequence (Q9H9B1 whole entry, species assumed): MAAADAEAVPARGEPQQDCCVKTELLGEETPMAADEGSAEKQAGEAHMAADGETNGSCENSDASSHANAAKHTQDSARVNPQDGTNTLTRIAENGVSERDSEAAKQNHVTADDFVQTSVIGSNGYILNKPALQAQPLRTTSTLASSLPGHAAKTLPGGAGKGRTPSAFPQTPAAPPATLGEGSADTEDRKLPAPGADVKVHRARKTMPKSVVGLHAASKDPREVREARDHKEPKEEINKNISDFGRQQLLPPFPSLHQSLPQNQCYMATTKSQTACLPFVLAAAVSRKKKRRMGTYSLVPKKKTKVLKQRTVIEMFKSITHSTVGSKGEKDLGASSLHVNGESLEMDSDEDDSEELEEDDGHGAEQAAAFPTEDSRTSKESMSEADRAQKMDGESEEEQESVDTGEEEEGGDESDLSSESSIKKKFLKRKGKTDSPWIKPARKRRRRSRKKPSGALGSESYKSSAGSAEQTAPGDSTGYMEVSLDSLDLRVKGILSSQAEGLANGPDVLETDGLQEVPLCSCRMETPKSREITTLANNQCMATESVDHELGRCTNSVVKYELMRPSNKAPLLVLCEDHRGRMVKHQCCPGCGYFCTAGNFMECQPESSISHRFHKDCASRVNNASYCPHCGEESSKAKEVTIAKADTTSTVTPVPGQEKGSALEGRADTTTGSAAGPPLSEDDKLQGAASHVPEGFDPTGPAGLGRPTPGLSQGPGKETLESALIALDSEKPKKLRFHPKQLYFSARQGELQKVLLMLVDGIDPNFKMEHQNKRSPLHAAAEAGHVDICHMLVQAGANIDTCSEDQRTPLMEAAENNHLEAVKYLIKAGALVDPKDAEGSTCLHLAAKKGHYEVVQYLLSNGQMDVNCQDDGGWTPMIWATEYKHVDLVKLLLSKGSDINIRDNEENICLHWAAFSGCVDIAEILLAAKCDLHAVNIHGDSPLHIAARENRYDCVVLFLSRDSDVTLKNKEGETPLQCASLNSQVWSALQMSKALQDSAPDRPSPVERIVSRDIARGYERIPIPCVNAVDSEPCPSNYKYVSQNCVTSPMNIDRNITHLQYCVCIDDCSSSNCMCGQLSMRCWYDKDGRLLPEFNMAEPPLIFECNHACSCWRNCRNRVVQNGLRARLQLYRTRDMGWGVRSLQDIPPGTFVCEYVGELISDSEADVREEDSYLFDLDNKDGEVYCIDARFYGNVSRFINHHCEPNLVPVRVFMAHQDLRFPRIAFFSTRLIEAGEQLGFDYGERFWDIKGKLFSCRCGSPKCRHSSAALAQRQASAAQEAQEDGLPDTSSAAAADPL
Experiment: EHMT1 enzyme assay on peptide substrate (EHMT1 PEP)
Format: biochemical
Conditions: Table III; read-out: EHMT1 PEP (IC50 μM)
# key: entry, value: IC50

Answered examples (3):
In [3]: df
Out[3]:
                                   compound  reported_value
0  CNc1cc(C)nc(Nc2ccc(OC)c(OCC3CCN(C)C3)c2)n1 (single isomer, unassigned) [Compound 417]     0.1 to 1 µM
1    CNc1nccc(Nc2ccc(OC)c(OCCCN3CCCC3)c2)n1        < 0.1 µM
2  CNc1cc(C)nc(Nc2ccc(OC)c(OCC3CCCN(C)C3)c2)n1 (stereo not shown)     0.1 to 1 µM

As a next step, examine the compound that follows.
Query: Dear colleague, I am looking for the recorded IC50 of the following compound: `CNc1ccnc(Nc2ccc3ccn(CCN4CCCC4)c(=O)c3c2)n1`
Result: > 10 µM

====

Target: EHMT1 (Homo sapiens, UniProt Q9H9B1)
Test: EHMT1 enzyme assay on peptide substrate (EHMT1 PEP)
Assay type: biochemical
Conditions: read-out: EHMT1 PEP (IC50 μM)
measured.endpoint: IC50

>>> print(df.to_string())
                                   compound  reported_value
0  CCN1CC(COc2cc(Nc3cccc4nncn34)ncc2OC)C1 [Compound 584]         > 10 µM
1  CNc1cc(C2CCOCC2)nc(Nc2ccc(OC)c(OCCCN3CCCC3)c2)n1 [Compound 459]      1 to 10 µM
2  CNc1cc(C)nc(Nc2cnc(OC)c(OCCCN3CC4CC4C3)c2)n1 (centres unmarked) [Compound 514]        < 0.1 µM
3  CCCC1(Nc2nccc(NC)n2)CCCNC1 (centres unmarked) [Compound 544]         > 10 µM

// moving on: another record for IC50
Query: Short answer please: IC50, EHMT1 (Homo sapiens, UniProt Q9H9B1), entry CNc1cc(C)nc(Nc2ccc(OC)c(OCC3CN(C4CCCC4)C3)c2)n1 [Compound 577]
Result: 0.1 to 1 µM

====

# IC50 values compiled below
Target: EHMT1 (Homo sapiens, UniProt Q9H9B1)
Experiment: EHMT1 enzyme assay on peptide substrate (EHMT1 PEP)
Format: biochemical
Settings: Table III; read-out: EHMT1 PEP (IC50 μM)

>>> df
                                   compound                                   tgt  reported_value
0  CNc1nc(Nc2ccc(OC)c(OCCCN3CCCC3)c2)ncc1C(F)(F)F  EHMT1 (Homo sapiens, UniProt Q9H9B1)         > 10 µM
1  CNc1ccnc(Nc2ccc(OC)c(OCCCN3CCC(C(F)(F)F)C3)c2)n1 (centres unmarked)  EHMT1 (Homo sapiens, UniProt Q9H9B1)         > 10 µM
2  CC(C)Nc1ccnc(Nc2cccc(OCCCN3CC[C@@H](F)C3)c2)n1  EHMT1 (Homo sapiens, UniProt Q9H9B1)         > 10 µM

Query: // IC50 lookup, key: `CNc1ccnc(Nc2ccc(OC)c(OCCN3CCOCC3)c2)n1`
Result: 1 to 10 µM

Query: Then what about the compound `COc1ccc(Nc2nccc(N)n2)cc1OCCCN1CCCC1` ?
Result: 0.1 to 1 µM

====

Target: human EHMT2 913-1193 (Homo sapiens)
Construct: recombinant purified human EHMT2 913-1193, Viva; purchased Viva
Sequence (Q96KQ7 913-1193): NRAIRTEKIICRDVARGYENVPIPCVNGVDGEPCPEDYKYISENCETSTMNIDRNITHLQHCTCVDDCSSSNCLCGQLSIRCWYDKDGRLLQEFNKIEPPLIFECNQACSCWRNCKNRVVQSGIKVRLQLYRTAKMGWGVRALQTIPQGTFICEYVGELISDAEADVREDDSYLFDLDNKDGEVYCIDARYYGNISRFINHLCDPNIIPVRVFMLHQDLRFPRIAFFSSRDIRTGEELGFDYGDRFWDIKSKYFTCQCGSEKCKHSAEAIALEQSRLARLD
Experiment: EHMT2 enzyme assay on histone peptide substrate (EHMT2 PEP)
Type: biochemical
Settings: Table II; read-out: EHMT2 PEP (IC50 μM)
Description: Recombinant purified human EHMT2 913-1193 (55 μM) synthesized by Viva was used for all experiments. Biotinylated histone peptides were synthesized by Biopeptide and HPLC-purified to >95% purity. […] 384-well Flashplates and 96-well filter binding plates were read on a TopCount microplate reader (PerkinElmer). […]
measured.endpoint: IC50

Query: Which IC50 is listed for COc1ccc(Nc2nccc(NCC3CCN(C(C)C)CC3)n2)cc1OCCCN1CCCC1 [Compound 29] ?
Result: < 0.1 µM

====

Biological target: human EHMT2 913-1193 (Homo sapiens)
Construct: recombinant purified human EHMT2 913-1193, Viva; purchased Viva
Assay: EHMT2 enzyme assay on histone peptide substrate (EHMT2 PEP)
Assay type: biochemical
Details: Table III; read-out: EHMT2 PEP (IC50 μM)
measured.endpoint: IC50

// below: answered molecules
In [3]: df
Out[3]:
                                smiles_repr                                  tgt  reported_value
0       CNc1ccnc(Nc2ccc3cn(CCN(C)C)nc3c2)n1  human EHMT2 913-1193 (Homo sapiens)         > 10 µM
1  CC(C)Nc1ccnc(Nc2cccc(OCCCN3CC[C@@H](F)C3)c2)n1  human EHMT2 913-1193 (Homo sapiens)         > 10 µM
2  COc1ccc(Nc2ccc3nn(C)cc3c2)cc1OCCCN1CCCC1  human EHMT2 913-1193 (Homo sapiens)         > 10 µM
3       CNc1cc(C)nc(Nc2ccc(OC)c(OCCOC)c2)n1  human EHMT2 913-1193 (Homo sapiens)         > 10 µM

Would you kindly look at the next entry?
Query: Quick one: IC50 of `CNc1cc(C)nc(Nc2ccc(OC)c(OCC3CCN(CC4CC4)CC3)c2)n1` ?
Result: 1 to 10 µM

====

Each item that follows carries a reported pIC50.
Target: EHMT2 (Homo sapiens)
Construct: host or cells: MDA-MB-231
Sequence (Q96KQ7 whole entry): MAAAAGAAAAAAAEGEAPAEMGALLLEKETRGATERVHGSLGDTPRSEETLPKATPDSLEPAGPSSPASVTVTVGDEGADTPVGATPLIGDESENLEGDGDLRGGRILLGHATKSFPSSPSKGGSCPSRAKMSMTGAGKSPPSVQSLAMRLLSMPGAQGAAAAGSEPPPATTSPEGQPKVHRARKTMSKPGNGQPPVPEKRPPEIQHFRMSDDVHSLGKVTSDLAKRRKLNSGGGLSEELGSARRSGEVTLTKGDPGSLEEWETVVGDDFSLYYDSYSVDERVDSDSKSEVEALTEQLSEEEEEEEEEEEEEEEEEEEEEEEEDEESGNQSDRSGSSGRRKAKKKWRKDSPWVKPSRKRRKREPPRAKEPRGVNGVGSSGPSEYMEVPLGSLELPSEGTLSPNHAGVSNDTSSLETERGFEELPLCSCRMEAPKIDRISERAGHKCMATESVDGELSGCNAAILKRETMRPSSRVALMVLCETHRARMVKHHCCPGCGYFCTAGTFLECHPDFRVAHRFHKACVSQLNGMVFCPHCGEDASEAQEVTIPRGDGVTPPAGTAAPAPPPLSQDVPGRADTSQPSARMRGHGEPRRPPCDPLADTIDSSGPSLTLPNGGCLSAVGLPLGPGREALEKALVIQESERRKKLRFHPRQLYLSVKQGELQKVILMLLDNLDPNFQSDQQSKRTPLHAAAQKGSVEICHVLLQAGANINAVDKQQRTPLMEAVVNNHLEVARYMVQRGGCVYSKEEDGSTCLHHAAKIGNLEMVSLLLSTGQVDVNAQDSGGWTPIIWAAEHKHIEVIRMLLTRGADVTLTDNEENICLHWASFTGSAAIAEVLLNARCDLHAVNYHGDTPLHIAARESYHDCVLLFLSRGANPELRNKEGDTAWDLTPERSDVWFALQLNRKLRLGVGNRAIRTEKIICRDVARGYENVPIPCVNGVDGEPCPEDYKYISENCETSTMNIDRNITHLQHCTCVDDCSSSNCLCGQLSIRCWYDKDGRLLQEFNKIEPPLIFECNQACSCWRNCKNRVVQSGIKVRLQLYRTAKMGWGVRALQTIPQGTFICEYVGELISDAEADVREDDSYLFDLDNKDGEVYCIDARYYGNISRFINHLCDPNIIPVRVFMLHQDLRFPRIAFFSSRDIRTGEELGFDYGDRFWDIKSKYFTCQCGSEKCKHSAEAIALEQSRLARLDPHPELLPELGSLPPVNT
Experiment: MDA-MB-231 H3K9me2 in-cell Western assay (EHMT2 ICW)
Type: cell-based
Conditions: Table VII; read-out: EHMT2 ICW IC50
pIC50: −log10 of the molar value.

Look over these answered cases.
                                   compound  reported_value
0  CNc1cc(C)nc(Nc2cnc(OC)c(CNCCN3CCC3)c2)n1 [Compound 1110]    6.00 to 7.00
1  CCN1CC[C@@H](COc2cc(Nc3nccc(NC)n3)ccc2OC)C1 [Compound 1055]    6.00 to 7.00
2  CNc1ccnc(Nc2ccc(OC)c(OCC[C@H]3CCCN3)c2)n1 [Compound 1074]          < 5.00
3  CNc1cc(C)nc(Nc2ccc(OC)c(COCCN3CCCC3)c2)n1 [Compound 1104]    6.00 to 7.00
4  CNc1ccnc(Nc2ccc(OC)c(OC[C@H]3CN(C)CCO3)c2)n1 [Compound 1067]          < 5.00

Query: For the compound CNc1ccnc(Nc2cnc(OC)c(OC[C@@H]3CCN(C4CC4)C3)c2)n1 [Compound 1051] , what pIC50 is on record?
Result: > 7.00

Query: Likewise for CNc1ccnc(Nc2ccc(OC)c(OC[C@H](O)CN3CCC3)c2)n1 [Compound 1093] ?
Result: 6.00 to 7.00

====

Target: EHMT1 (Homo sapiens, UniProt Q9H9B1)
Assay: EHMT1 enzyme assay on peptide substrate (EHMT1 PEP)
Format: biochemical
Settings: Table VI; read-out: EHMT1 PEP IC50
pIC50: −log10 of the molar value.
Some compounds, each annotated with its measured pIC50.

In [3]: df
Out[3]:
                                   compound  measured_endpoint  reported_value
0  CNc1ccnc(Nc2cnc(OC)c(OC[C@@H]3CCN(C4CCC4)C3)n2)n1              pIC50          > 7.00
1  CNc1cc(C)nc(Nc2cnc(OC)c(OC[C@@H](O)CN3CCCC3)c2)n1              pIC50    6.00 to 7.00
2  CNc1ccnc(Nc2ccc(OC)c(OC[C@H](C)CN3CCC3)c2)n1              pIC50          > 7.00

Query: Test system EHMT1 (Homo sapiens, UniProt Q9H9B1); read-out pIC50; what value for `CCN1CC[C@@H](COc2cc3nc(C)nc(C4CCN(C)CC4)c3cc2OC)C1` ?
Result: 6.00 to 7.00

Query: Continue with `COc1cnc(Nc2cccc3nccn23)nc1OCCCN1CCCC1`
Result: < 5.00

Query: Next record, please: `CNc1cc(C)nc(Nc2ccc(OC)c(OCCCc3nc(Cl)c[nH]3)c2)n1`
Result: < 5.00

Query: Also check `COc1cc2c(C)nc(N3CCCCC3)nc2cc1OCCCN1CCCC1`
Result: < 5.00

Query: Same again, this time with `CNCCNCc1cc(Nc2nc(C)cc(NC)n2)ccc1OC`
Result: > 7.00

Query: Can you handle CN1CCC(COc2cnc(N(C)C3CCNCC3)nc2)C1 (stereo not drawn) next?
Result: < 5.00

All values here come from patent US20210198277A1.
